All figures here come from ChEMBL document CHEMBL3046525.

# Test system: BALB/3T3
# test: Cytotoxicity against Mus musculus (mouse) BALB/3T3 cells after 72 hr by SRB assay
# Assay type: cell-based
# setup_conditions: BALB/3T3, 72 h
endpoint_name: IC50 (nM)
Kindly provide the numeric value in nM only, without the unit symbol.

IC50 for COC(=O)c1ccc2nc3n(C)c4ccc(Br)cc4c(NCCCN)c-3c2c1 is 833
